Item-by-item account of EC50
Biological target: UniProtKB Q96RI1
Test: FXR Agonist Assay (Gaussia luciferase reporter)
Conditions: cells incubated with compound at 37° C. for 20 hours; Gaussia luciferase luminescence; 10-point dose-response in duplicate

In the examples that follow, each entry is paired with its recorded EC50.
# Compound, Value Measured
measured = [
    ("CCOC(=O)C1=CN(C(=O)c2ccc(F)c(F)c2)CC(C)(C)c2c(C(C)C)n[nH]c21 [Example 5]", "< 200 nM"),
    ("CCOC(=O)C1=CN(C(=O)c2cc3ccccc3s2)CC(C)(C)c2cn[nH]c21 [Example 44]", "200 to 1000 nM"),
]

Qu. Query (compound): CC(C)OC(=O)C1=CN(C(=O)c2ccc(Cl)c(Cl)c2)CC(C)(C)c2cn[nH]c21 [Example 42] ; field requested: EC50
Ans. < 200 nM

Qu. And for CC(C)OC(=O)C1=CN(C(=O)N2CCN(C)CC2)CC(C)(C)c2c(C(F)(F)F)n[nH]c21 [Example 22] ?
Ans. 200 to 1000 nM

Qu. Same read-out for CC(C)NC(=O)C1=CN(C(=O)c2ccc(OCCN3CCOCC3)cc2)CC(C)(C)c2c(C(F)(F)F)n[nH]c21 [Example 8] ?
Ans. < 200 nM

Qu. Now consider CCCc1n[nH]c2c1C(C)(C)CN(C(=O)C1CCOCC1)C=C2C(=O)OC(C)C [Example 36] and answer again.
Ans. 200 to 1000 nM

---

The compounds listed here are annotated with their EC50.
Molecular target: FXR (Homo sapiens (Human), UniProt Q96RI1)
Sequence (Q96RI1 whole entry, species assumed): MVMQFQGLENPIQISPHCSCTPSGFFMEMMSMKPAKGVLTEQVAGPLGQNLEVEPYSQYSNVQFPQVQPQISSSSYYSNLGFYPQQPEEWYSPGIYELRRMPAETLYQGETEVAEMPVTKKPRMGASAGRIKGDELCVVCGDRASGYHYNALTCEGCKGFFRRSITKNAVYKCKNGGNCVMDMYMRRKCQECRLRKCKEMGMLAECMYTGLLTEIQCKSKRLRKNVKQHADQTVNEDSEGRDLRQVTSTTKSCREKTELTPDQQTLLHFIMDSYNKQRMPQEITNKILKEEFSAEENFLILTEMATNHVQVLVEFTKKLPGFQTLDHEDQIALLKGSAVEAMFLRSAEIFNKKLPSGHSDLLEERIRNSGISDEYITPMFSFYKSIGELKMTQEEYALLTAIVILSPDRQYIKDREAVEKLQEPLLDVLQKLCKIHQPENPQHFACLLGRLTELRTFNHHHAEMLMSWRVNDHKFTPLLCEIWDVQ
Assay: FXR Agonist Assay (Gaussia luciferase reporter)
Conditions: cells incubated with compound at 37° C. for 20 hours; Gaussia luciferase luminescence; 10-point dose-response in duplicate

Worked examples follow.
# Smiles Structure, EC50
records = [
    ("CC(C)OC(=O)C1=CN(C(=O)c2ccc(F)c(F)c2)CC(C)(C)c2cn[nH]c21", "200 to 1000 nM"),
    ("CCCCc1n[nH]c2c1C(C)(C)CN(C(=O)c1cccc(F)c1)C=C2C(=O)OC(C)C", "< 200 nM"),
    ("CC(C)OC(=O)C1=CN(C(=O)c2ccc(OCCN3CCOCC3)cc2)CC(C)(C)c2c(C(F)(F)F)n[nH]c21", "< 200 nM"),
    ("CC(C)Cc1n[nH]c2c1C(C)(C)CN(C(=O)c1ccc(F)c(F)c1)C=C2C(=O)OC(C)C", "< 200 nM"),
    ("CCCc1n[nH]c2c1C(C)(C)CN(C(=O)c1ccc(F)c(F)c1)C=C2C(=O)OCC", "< 200 nM"),
    ("CCCc1n[nH]c2c1C(C)(C)CN(C(=O)C1CCCCC1)C=C2C(=O)OC(C)C", "< 200 nM"),
    ("CCCc1n[nH]c2c1C(C)(C)CN(C(=O)c1ccccn1)C=C2C(=O)OC(C)C", "1000 to 10000 nM"),
    ("CCCCc1n[nH]c2c1C(C)(C)CN(C(=O)c1ccc(F)c(F)c1)C=C2C(=O)OCC", "< 200 nM"),
]

Qu. I'd like to know its EC50. The compound in question is CCOC(=O)C1=CN(C(=O)c2ccc(F)c(F)c2)CC(C)(C)c2cn[nH]c21
Ans. 200 to 1000 nM

Qu. Let us now turn to CC(C)OC(=O)C1=CN(C(=O)c2cc(F)c(F)cc2Cl)CC(C)(C)c2c(C(F)(F)F)n[nH]c21
Ans. < 200 nM

Qu. Then CCOC(=O)C1=CN(C(=O)c2ccc3ccccc3c2)CC(C)(C)c2cn[nH]c21 ?
Ans. < 200 nM

Qu. Follow-up entry: CCOC(=O)C1=CN(C(=O)c2ccc(F)c(F)c2)CC(C)(C)c2c(-c3ccc(F)cc3)n[nH]c21
Ans. < 200 nM

Qu. Then this compound: CCOC(=O)C1=CN(C(=O)c2cccc(F)c2)CC(C)(C)c2cn[nH]c21
Ans. 200 to 1000 nM

Qu. # iterate: CC(C)NC(=O)C1=CN(C(=O)c2ccc(F)c(F)c2)CC(C)(C)c2cn[nH]c21
Ans. 200 to 1000 nM

Qu. Can you handle CC(C)OC(=O)C1=CN(C(=O)c2cccc(F)c2)CC(C)(C)c2c(C(F)(F)F)n[nH]c21 next?
Ans. < 200 nM

Qu. Can you handle CCCc1n[nH]c2c1C(C)(C)CN(C(=O)c1ccncc1)C=C2C(=O)OC(C)C next?
Ans. 200 to 1000 nM

---

The entries below come with measured pEC50 values attached.
Molecular target: FXR (Homo sapiens (Human))
Experiment: FXR Agonist Assay (Gaussia luciferase reporter)
Conditions: cells incubated with compound at 37° C. for 20 hours; Gaussia luciferase luminescence; 10-point dose-response in duplicate
pEC50: −log10 of the molar value.

Known pEC50 results, listed for orientation:
# Compound, Experimental Target, pEC50
measured = [
    ("COCCc1n[nH]c2c1C(C)(C)CN(C(=O)c1cccc(F)c1)C=C2C(=O)OC(C)C [Example 27]", "FXR (Homo sapiens (Human))", "> 6.70"),
    ("CC(C)Cc1n[nH]c2c1C(C)(C)CN(C(=O)c1cccc(F)c1)C=C2C(=O)OC(C)C [Example 25]", "FXR (Homo sapiens (Human))", "> 6.70"),
]

Qu. I would be grateful if you could share the reported pEC50 for CCCc1n[nH]c2c1C(C)(C)CN(C(=O)c1cccnc1)C=C2C(=O)OC(C)C [Example 18] .
Ans. 6.00 to 6.70

Qu. Thanks! And CC(C)OC(=O)C1=CN(C(=O)c2ccc(OCCCN3CCOCC3)cc2)CC(C)(C)c2c(C(F)(F)F)n[nH]c21 [Example 9] ?
Ans. > 6.70

Qu. Next entry: CC(C)OC(=O)C1=CN(C(=O)c2ccc(F)c(CN3CCOCC3)c2)CC(C)(C)c2c(C(F)(F)F)n[nH]c21 [Example 12]
Ans. > 6.70

---

Target: FXR (Homo sapiens (Human), UniProt Q96RI1)
Experiment: FXR Agonist Assay (Gaussia luciferase reporter)
Conditions: cells incubated with compound at 37° C. for 20 hours; Gaussia luciferase luminescence; 10-point dose-response in duplicate
A collection of molecules and their measured EC50

# Smiles Structure, EC50
records = [
    ("CC(C)OC(=O)C1=CN(C(=O)c2cccc(OCCN3CCOCC3)c2)CC(C)(C)c2c(C(F)(F)F)n[nH]c21", "200 to 1000 nM"),
    ("CCCc1n[nH]c2c1C(C)(C)CN(C(=O)c1cccc(F)c1)C=C2C(=O)OC(C)C", "< 200 nM"),
    ("CCCCc1n[nH]c2c1C(C)(C)CN(C(=O)N1CCOCC1)C=C2C(=O)OC(C)C", "< 200 nM"),
    ("CC(C)OC(=O)C1=CN(C(=O)c2ccc(F)c(OCCN3CCOCC3)c2)CC(C)(C)c2c(C(F)(F)F)n[nH]c21", "200 to 1000 nM"),
    ("CC(C)OC(=O)C1=CN(C(=O)c2ccc(F)c(F)c2)CC(C)(C)c2c(C(F)(F)F)n[nH]c21", "< 200 nM"),
]

Qu. What measured EC50 goes with CCCCc1n[nH]c2c1C(C)(C)CN(C(=O)c1ccc(F)c(F)c1)C=C2C(=O)OC(C)C ?
Ans. < 200 nM

Qu. Another molecule to check: CCOC(=O)C1=CN(C(=O)c2ccc(F)c(F)c2)CC(C)(C)c2c(CC)n[nH]c21
Ans. < 200 nM

Qu. Next record, please: COCCc1n[nH]c2c1C(C)(C)CN(C(=O)c1ccc(F)c(F)c1)C=C2C(=O)OC(C)C
Ans. < 200 nM

Qu. Follow-up item: CCOC(=O)C1=CN(C(=O)c2ccc3c(c2)OC(F)(F)O3)CC(C)(C)c2cn[nH]c21
Ans. 1000 to 10000 nM

Qu. Next molecule up: CC(=O)c1n[nH]c2c1C(C)(C)CN(C(=O)c1ccc(F)c(F)c1)C=C2C(=O)OC(C)C
Ans. < 200 nM

Qu. Same again, this time with CCCc1n[nH]c2c1C(C)(C)CN(C(=O)N1CCOCC1)C=C2C(=O)OC(C)C
Ans. 200 to 1000 nM

Qu. What do we get for CC(C)NC(=O)C1=CN(C(=O)c2ccc(F)c(F)c2)CC(C)(C)c2c(C(F)(F)F)n[nH]c21 ?
Ans. < 200 nM

Qu. One more molecule: CCCc1n[nH]c2c1C(C)(C)CN(C(=O)c1ccc(F)c(F)c1)C=C2C(=O)OC(C)C
Ans. < 200 nM

Qu. Can you check CC(C)OC(=O)C1=CN(C(=O)c2ccc(F)cc2)CC(C)(C)c2c(C(F)(F)F)n[nH]c21 next?
Ans. < 200 nM

Qu. Would you kindly repeat that for CCOC(=O)C1=CN(C(=O)C2CCCCC2)CC(C)(C)c2cn[nH]c21 ?
Ans. 1000 to 10000 nM

Qu. Moving on to the next molecule: CCCc1n[nH]c2c1C(C)(C)CN(C(=O)c1ccc(C(F)(F)F)nc1)C=C2C(=O)OC(C)C
Ans. 200 to 1000 nM

Qu. What do we get for CCCCc1n[nH]c2c1C(C)(C)CN(C(=O)C1CCOCC1)C=C2C(=O)OC(C)C ?
Ans. 200 to 1000 nM

Qu. Try this molecule next: CCCCc1n[nH]c2c1C(C)(C)CN(C(=O)C1CCCCC1)C=C2C(=O)OC(C)C
Ans. 200 to 1000 nM

Qu. How about CCOC(=O)C1=CN(C(=O)c2ccc(F)c(F)c2)CC(C)(C)c2c(C)n[nH]c21 ?
Ans. < 200 nM

Qu. Next record, please: CC(C)OC(=O)C1=CN(C(=O)c2ccc(F)cc2F)CC(C)(C)c2c(C(F)(F)F)n[nH]c21
Ans. < 200 nM
